Value source: PubChem BioAssay AID2060600

# Tested on: 996289-038-R-J1-PDC complex spheroid viability
# Test Name: Anticancer human tumor 996289-038-R-J1-PDC patient-derived colon adenocarcinoma cell line growth inhibition [CLK]
# Run Parameters: second compound 0.0316 µM; first compound 0.0316 µM; hits give low values
Catalogue of molecules with associated viability, T/C
Supply the numeric figure in %, leaving out any unit text.

Solved cases (5 shown):
O=c1[nH]cc(F)c(=O)[nH]1 + CN1CCN(c2cc(C(=O)Nc3cc4cc(-c5cnn(C)c5)ccc4cn3)ccn2)CC1 :: 100
COc1cccc2c1C(=O)c1c(O)c3c(c(O)c1C2=O)CC(O)(C(=O)CO)CC3OC1CC(N)C(O)C(C)O1 (stereo not given) + CN1CCN(c2cc(C(=O)Nc3cc4cc(-c5cnn(C)c5)ccc4cn3)ccn2)CC1 :: 89.6
CC(=O)O[C@H]1C(=O)[C@@]2(C)[C@H]([C@H](OC(=O)c3ccccc3)[C@]3(O)C[C@H](OC(=O)[C@H](O)[C@@H](NC(=O)c4ccccc4)c4ccccc4)C(C)=C1C3(C)C)[C@]1(OC(C)=O)CO[C@@H]1C[C@@H]2O + CN1CCN(c2cc(C(=O)Nc3cc4cc(-c5cnn(C)c5)ccc4cn3)ccn2)CC1 :: 94
CCN1CCN(Cc2ccc(Nc3ncc(F)c(-c4cc(F)c5nc(C)n(C(C)C)c5c4)n3)nc2)CC1 + CN1CCN(c2cc(C(=O)Nc3cc4cc(-c5cnn(C)c5)ccc4cn3)ccn2)CC1 :: 82.6
COC1C=CCC(C)C(C)S(=O)(=O)NC(=O)c2ccc3c(c2)N(CC2CCC21)CC1(CCCc2cc(Cl)ccc21)CO3 (stereo not given) + CN1CCN(c2cc(C(=O)Nc3cc4cc(-c5cnn(C)c5)ccc4cn3)ccn2)CC1 :: 98.8

Kindly indicate its recorded viability, T/C. Item: CC(Nc1ccc2c(c1)OCCn1cc(N3C(=O)OCC3C(F)F)nc1-2)C(N)=O (stereo not given) + CN1CCN(c2cc(C(=O)Nc3cc4cc(-c5cnn(C)c5)ccc4cn3)ccn2)CC1 88.1

Give viability, T/C for C=C(F)C(=O)N1CCN(c2nc(OCC3CCCN3C)nc3c2CCN(c2cccc4cccc(Cl)c24)C3)CC1CC#N (stereo not given) + CNC(=O)c1ccc(Nc2nc(OC3CCCC3)c3c(-c4ccc5nc(C)oc5c4)c[nH]c3n2)c(OC)c1 127

Report viability, T/C for COc1c(OCCCN2CCOCC2)ccc2c3n(c(=NC(=O)c4cnc(N)nc4)nc12)CCN3 + CN1CCN(c2cc(C(=O)Nc3cc4cc(-c5cnn(C)c5)ccc4cn3)ccn2)CC1 64.5

Fill in viability, T/C for record CC(CO)NC(=O)c1cc(-c2ccc(Cl)cc2)nn(-c2cnn(C)c2)c1=O (stereo not given) + CN1CCN(c2cc(C(=O)Nc3cc4cc(-c5cnn(C)c5)ccc4cn3)ccn2)CC1 105

Return viability, T/C for the following molecule: COC1C=CCC(C)C(C)S(=O)(=O)NC(=O)c2ccc3c(c2)N(CC2CCC21)CC1(CCCc2cc(Cl)ccc21)CO3 (stereo not given) + CNC(=O)c1ccc(Nc2nc(OC3CCCC3)c3c(-c4ccc5nc(C)oc5c4)c[nH]c3n2)c(OC)c1 131

====

Listed below: viability, T/C values for each entry.
# System: 996289-038-R-J1-PDC complex spheroid viability
# Test Name: Anticancer human tumor 996289-038-R-J1-PDC cell line growth inhibition [CLK];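 further: spheroids exposed to the agents for 7 days before readout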
# Run Parameters: second compound 3.16 µM; first compound 0.0949 µM; hits give low values
Response body: numeric value in %, unit text excluded.

CC(C)CC(NC(=O)C(Cc1ccccc1)NC(=O)c1cnccn1)B(O)O (stereo not drawn) + CNC(=O)c1ccc(Nc2nc(OC3CCCC3)c3c(-c4ccc5nc(C)oc5c4)c[nH]c3n2)c(OC)c1 :: 0.85
CC(C)CC(NC(=O)C(Cc1ccccc1)NC(=O)c1cnccn1)B(O)O (stereo not drawn) + CN1CCN(c2cc(C(=O)Nc3cc4cc(-c5cnn(C)c5)ccc4cn3)ccn2)CC1 :: 0.47

Consider the molecule C=CC(=O)Nc1cc(Nc2nccc(-c3cn(C)c4ccccc34)n2)c(OC)cc1N(C)CCN(C)C + CNC(=O)c1ccc(Nc2nc(OC3CCCC3)c3c(-c4ccc5nc(C)oc5c4)c[nH]c3n2)c(OC)c1 . State its measured viability, T/C. 53.1

====

# System: 996289-038-R-J1-PDC complex spheroid viability
# Test Name: Anticancer human tumor 996289-038-R-J1-PDC cell line growth inhibition [CLK];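 further: spheroids exposed to the agents for 7 days before readout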
# Run Parameters: second compound 1 µM; first compound 0.0316 µM; hits give low values
Below, each entry is listed with its recorded viability, T/C.
Only the number, expressed in %, is required.

O=C(c1cc(Cc2n[nH]c(=O)c3ccccc23)ccc1F)N1CCN(C(=O)C2CC2)CC1 + CN1CCN(c2cc(C(=O)Nc3cc4cc(-c5cnn(C)c5)ccc4cn3)ccn2)CC1 :: 3.61

Return the recorded viability, T/C value; entry: Cn1ncnc1[C@H]1c2n[nH]c(=O)c3cc(F)cc(c23)N[C@@H]1c1ccc(F)cc1 + CNC(=O)c1ccc(Nc2nc(OC3CCCC3)c3c(-c4ccc5nc(C)oc5c4)c[nH]c3n2)c(OC)c1 65.5

Given the molecule C=C(F)C(=O)N1CCN(c2nc(OCC3CCCN3C)nc3c2CCN(c2cccc4cccc(Cl)c24)C3)CC1CC#N (stereo not drawn) + CNC(=O)c1ccc(Nc2nc(OC3CCCC3)c3c(-c4ccc5nc(C)oc5c4)c[nH]c3n2)c(OC)c1 , write its reported viability, T/C. 62.9

====

# Tested on: 996289-038-R-J1-PDC complex spheroid viability
# Test Name: Anticancer human tumor 996289-038-R-J1-PDC cell line growth inhibition [CLK];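 further: spheroids exposed to the agents for 7 days before readout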
# Run Parameters: second compound 10 µM; first compound 0.01 µM; hits give low values
Parameter: viability, T/C (%)
State just the number; it will be interpreted in %.

CCN1CCN(Cc2ccc(Nc3ncc(F)c(-c4cc(F)c5nc(C)n(C(C)C)c5c4)n3)nc2)CC1 + CNC(=O)c1ccc(Nc2nc(OC3CCCC3)c3c(-c4ccc5nc(C)oc5c4)c[nH]c3n2)c(OC)c1 :: 63.9
CCc1c2c(nc3ccc(O)cc13)-c1cc3c(c(=O)n1C2)COC(=O)[C@]3(O)CC + CN1CCN(c2cc(C(=O)Nc3cc4cc(-c5cnn(C)c5)ccc4cn3)ccn2)CC1 :: 2.51
CCc1c2c(nc3ccc(O)cc13)-c1cc3c(c(=O)n1C2)COC(=O)[C@]3(O)CC + CNC(=O)c1ccc(Nc2nc(OC3CCCC3)c3c(-c4ccc5nc(C)oc5c4)c[nH]c3n2)c(OC)c1 :: 52
Cn1ncnc1[C@H]1c2n[nH]c(=O)c3cc(F)cc(c23)N[C@@H]1c1ccc(F)cc1 + CN1CCN(c2cc(C(=O)Nc3cc4cc(-c5cnn(C)c5)ccc4cn3)ccn2)CC1 :: 2.6

Query molecule follows.
Jot down viability, T/C (996289-038-R-J1-PDC complex spheroid viability) of COc1c(OCCCN2CCOCC2)ccc2c3n(c(=NC(=O)c4cnc(N)nc4)nc12)CCN3 + CN1CCN(c2cc(C(=O)Nc3cc4cc(-c5cnn(C)c5)ccc4cn3)ccn2)CC1 . 0.97

====

# Tested on: 996289-038-R-J1-PDC complex spheroid viability
# Test Name: Anticancer human tumor 996289-038-R-J1-PDC cell line growth inhibition [CLK];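 further: spheroids exposed to the agents for 7 days before readout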
# Run Parameters: second compound 3.16 µM; first compound 3.16 µM; hits give low values
Rule: measured viability, T/C below 30% gets label 1; anything equal to or greater than 30% gets label 0.

Known results for compounds:
CC1(C)CCC(CN2CCN(c3ccc(C(=O)NS(=O)(=O)c4ccc(NCC5CCOCC5)c([N+](=O)[O-])c4)c(Oc4cnc5[nH]ccc5c4)c3)CC2)=C(c2ccc(Cl)cc2)C1 + CN1CCN(c2cc(C(=O)Nc3cc4cc(-c5cnn(C)c5)ccc4cn3)ccn2)CC1 :: label 1
C#Cc1c(F)ccc2cc(O)cc(-c3ncc4c(N5CC6CCC(C5)N6)nc(OCC56CCCN5CC(F)C6)nc4c3F)c12 (stereo not given) + CN1CCN(c2cc(C(=O)Nc3cc4cc(-c5cnn(C)c5)ccc4cn3)ccn2)CC1 :: label 1
COC1C=CCC(C)C(C)S(=O)(=O)NC(=O)c2ccc3c(c2)N(CC2CCC21)CC1(CCCc2cc(Cl)ccc21)CO3 (stereo not given) + CN1CCN(c2cc(C(=O)Nc3cc4cc(-c5cnn(C)c5)ccc4cn3)ccn2)CC1 :: label 1
CC(CO)NC(=O)c1cc(-c2ccc(Cl)cc2)nn(-c2cnn(C)c2)c1=O (stereo not given) + CNC(=O)c1ccc(Nc2nc(OC3CCCC3)c3c(-c4ccc5nc(C)oc5c4)c[nH]c3n2)c(OC)c1 :: label 0
CCCS(=O)(=O)Nc1ccc(F)c(C(=O)c2c[nH]c3ncc(-c4ccc(Cl)cc4)cc23)c1F + CN1CCN(c2cc(C(=O)Nc3cc4cc(-c5cnn(C)c5)ccc4cn3)ccn2)CC1 :: label 1

Identify whether the compound CC1COCCN1c1cc(C2(S(C)(=N)=O)CC2)nc(-c2ccnc3[nH]ccc23)n1 (stereo not given) + CN1CCN(c2cc(C(=O)Nc3cc4cc(-c5cnn(C)c5)ccc4cn3)ccn2)CC1 records viability, T/C below 30%. label 1

Strictly below 30%: is that where viability, T/C of C=C(F)C(=O)N1CCN(c2nc(OCC3CCCN3C)nc3c2CCN(c2cccc4cccc(Cl)c24)C3)CC1CC#N (stereo not given) + CNC(=O)c1ccc(Nc2nc(OC3CCCC3)c3c(-c4ccc5nc(C)oc5c4)c[nH]c3n2)c(OC)c1 sits? label 0

Identify whether the compound Nc1ccccc1NC(=O)c1ccc(CNC(=O)OCc2cccnc2)cc1 + CNC(=O)c1ccc(Nc2nc(OC3CCCC3)c3c(-c4ccc5nc(C)oc5c4)c[nH]c3n2)c(OC)c1 records viability, T/C below 30%. label 0

Find out if reported viability, T/C for CC1(C)CCC(CN2CCN(c3ccc(C(=O)NS(=O)(=O)c4ccc(NCC5CCOCC5)c([N+](=O)[O-])c4)c(Oc4cnc5[nH]ccc5c4)c3)CC2)=C(c2ccc(Cl)cc2)C1 + CNC(=O)c1ccc(Nc2nc(OC3CCCC3)c3c(-c4ccc5nc(C)oc5c4)c[nH]c3n2)c(OC)c1 is less than 30% label 0

Determine if CC(Nc1ccc2c(c1)OCCn1cc(N3C(=O)OCC3C(F)F)nc1-2)C(N)=O (stereo not given) + CNC(=O)c1ccc(Nc2nc(OC3CCCC3)c3c(-c4ccc5nc(C)oc5c4)c[nH]c3n2)c(OC)c1 shows viability, T/C strictly lower than 30%. label 1
